TESTED SYSTEM: Leucine-rich repeat serine/threonine-protein kinase 2 (Homo sapiens, UniProt Q5S007, G2019S)
Sequence (Q5S007 whole entry G2019S, the tested form may be a part): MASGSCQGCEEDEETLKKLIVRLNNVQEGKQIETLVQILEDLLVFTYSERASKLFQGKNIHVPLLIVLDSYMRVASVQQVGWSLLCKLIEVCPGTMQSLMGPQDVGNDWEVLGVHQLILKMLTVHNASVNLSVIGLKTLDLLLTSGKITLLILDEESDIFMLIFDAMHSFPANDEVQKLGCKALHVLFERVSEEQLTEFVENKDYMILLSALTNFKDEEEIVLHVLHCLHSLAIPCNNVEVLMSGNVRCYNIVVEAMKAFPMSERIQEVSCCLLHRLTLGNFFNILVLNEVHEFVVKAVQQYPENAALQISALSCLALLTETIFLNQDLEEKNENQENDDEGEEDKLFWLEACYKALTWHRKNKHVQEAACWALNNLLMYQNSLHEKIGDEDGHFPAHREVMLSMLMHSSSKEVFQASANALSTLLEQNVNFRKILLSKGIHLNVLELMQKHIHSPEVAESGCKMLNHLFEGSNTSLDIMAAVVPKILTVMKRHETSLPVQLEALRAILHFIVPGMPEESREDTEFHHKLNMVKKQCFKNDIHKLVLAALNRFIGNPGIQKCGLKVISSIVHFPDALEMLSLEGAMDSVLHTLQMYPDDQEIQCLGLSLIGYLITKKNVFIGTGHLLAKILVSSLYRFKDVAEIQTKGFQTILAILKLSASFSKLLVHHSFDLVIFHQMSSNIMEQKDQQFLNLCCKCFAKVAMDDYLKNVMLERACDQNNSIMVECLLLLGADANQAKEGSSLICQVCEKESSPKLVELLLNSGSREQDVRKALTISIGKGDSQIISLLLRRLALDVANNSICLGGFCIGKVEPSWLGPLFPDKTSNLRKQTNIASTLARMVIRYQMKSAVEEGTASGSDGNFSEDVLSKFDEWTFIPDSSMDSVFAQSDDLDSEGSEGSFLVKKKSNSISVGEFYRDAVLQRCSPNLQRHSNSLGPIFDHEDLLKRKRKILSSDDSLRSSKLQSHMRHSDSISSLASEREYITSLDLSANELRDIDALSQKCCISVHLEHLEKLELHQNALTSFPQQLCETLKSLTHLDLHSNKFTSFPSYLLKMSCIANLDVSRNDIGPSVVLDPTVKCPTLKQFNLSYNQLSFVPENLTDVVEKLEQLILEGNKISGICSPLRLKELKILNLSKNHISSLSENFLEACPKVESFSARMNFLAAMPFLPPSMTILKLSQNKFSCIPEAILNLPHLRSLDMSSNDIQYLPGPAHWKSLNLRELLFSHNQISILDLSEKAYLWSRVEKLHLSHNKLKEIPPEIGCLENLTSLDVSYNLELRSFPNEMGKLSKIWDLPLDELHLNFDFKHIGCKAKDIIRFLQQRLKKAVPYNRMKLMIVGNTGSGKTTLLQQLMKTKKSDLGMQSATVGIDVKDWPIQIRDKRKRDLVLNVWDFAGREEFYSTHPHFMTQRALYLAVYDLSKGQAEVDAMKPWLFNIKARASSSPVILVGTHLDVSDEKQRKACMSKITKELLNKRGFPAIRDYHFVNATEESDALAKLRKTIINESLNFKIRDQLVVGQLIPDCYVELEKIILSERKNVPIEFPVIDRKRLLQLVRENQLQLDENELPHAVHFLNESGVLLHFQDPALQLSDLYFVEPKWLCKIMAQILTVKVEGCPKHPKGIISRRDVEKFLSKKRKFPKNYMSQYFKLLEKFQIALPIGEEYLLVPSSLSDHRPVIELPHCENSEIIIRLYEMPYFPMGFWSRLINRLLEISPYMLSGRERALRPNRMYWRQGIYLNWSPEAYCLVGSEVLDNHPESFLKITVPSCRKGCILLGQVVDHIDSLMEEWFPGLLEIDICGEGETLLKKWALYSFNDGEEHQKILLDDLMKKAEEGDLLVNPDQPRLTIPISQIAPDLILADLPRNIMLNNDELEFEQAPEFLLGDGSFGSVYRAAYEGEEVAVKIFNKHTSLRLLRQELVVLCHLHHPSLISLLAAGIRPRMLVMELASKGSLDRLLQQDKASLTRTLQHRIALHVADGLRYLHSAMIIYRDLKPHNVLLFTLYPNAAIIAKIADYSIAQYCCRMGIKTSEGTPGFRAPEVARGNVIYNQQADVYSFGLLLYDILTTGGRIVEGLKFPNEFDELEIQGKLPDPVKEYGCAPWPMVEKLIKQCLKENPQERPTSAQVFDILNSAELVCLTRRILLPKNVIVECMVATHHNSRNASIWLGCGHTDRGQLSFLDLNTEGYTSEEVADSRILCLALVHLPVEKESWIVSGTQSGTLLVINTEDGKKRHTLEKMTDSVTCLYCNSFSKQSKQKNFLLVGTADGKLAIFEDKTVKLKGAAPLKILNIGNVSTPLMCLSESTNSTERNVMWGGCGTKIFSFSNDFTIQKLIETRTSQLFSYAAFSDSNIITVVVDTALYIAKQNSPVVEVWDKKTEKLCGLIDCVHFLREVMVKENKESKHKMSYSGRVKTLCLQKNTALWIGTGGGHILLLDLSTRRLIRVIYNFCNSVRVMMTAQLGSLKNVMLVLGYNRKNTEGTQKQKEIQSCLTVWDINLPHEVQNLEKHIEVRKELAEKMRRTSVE
ASSAY TEXT: Inhibition of recombinant human GST-tagged LRRK2 G2019S mutant catalytic domain (970 to 2527 residues) expressed in baculovirus expression system by radiometric assay
pIC50: −log10 of the molar value.
Grouping rule (pIC50): low value (below 6), medium value (6 to below 7), high value (7 or more)

>  <SMILES CODE>
Cc1n[nH]c2ccnc(N3CCOCC3)c12

>  <ASSIGNED CLASS>
low value

$$$$
>  <SMILES CODE>
Cc1n[nH]c2ccnc(NC3CCCC3)c12

>  <ASSIGNED CLASS>
medium value

$$$$
>  <SMILES CODE>
c1cc(-c2n[nH]c3ccnc(OC4CCOCC4)c23)cc(N2CCOCC2)n1

>  <ASSIGNED CLASS>
high value

$$$$
>  <SMILES CODE>
CC(C)n1cc(-c2n[nH]c3ccnc(OC4CCOCC4)c23)cn1

>  <ASSIGNED CLASS>
high value

$$$$
>  <SMILES CODE>
Cc1c[nH]c2ccnc(NC3CCCCC3)c12

>  <ASSIGNED CLASS>
low value

$$$$
>  <SMILES CODE>
Cc1n[nH]c2ccnc(NC3CCCCC3)c12

>  <ASSIGNED CLASS>
medium value

$$$$
>  <SMILES CODE>
Cc1n[nH]c2ccnc(OC3CCN(C)CC3)c12

>  <ASSIGNED CLASS>
low value

$$$$
>  <SMILES CODE>
Cc1n[nH]c2ccnc(Nc3ccc(Cl)cc3)c12

>  <ASSIGNED CLASS>
medium value

$$$$
>  <SMILES CODE>
c1cc2[nH]nc(-c3cnn(C4CCCC4)c3)c2c(OC2CCOCC2)n1

>  <ASSIGNED CLASS>
high value

$$$$

====

TESTED SYSTEM: Mitogen-activated protein kinase 14 (Homo sapiens)
ASSAY TEXT: Inhibition of p38a MAPK (unknown origin) at 10 uM relative to control
PROPERTY MEASURED: inhibition

>  <SMILES CODE>
Cc1n[nH]c2ccnc(NC3CCCCC3)c12

>  <TESTED SYSTEM>
Mitogen-activated protein kinase 14 (Homo sapiens)

>  <MEAS VALUE>
9%

$$$$
>  <SMILES CODE>
Cc1n[nH]c2ccnc(Nc3ccc4ncsc4c3)c12

>  <TESTED SYSTEM>
Mitogen-activated protein kinase 14 (Homo sapiens)

>  <MEAS VALUE>
0%

$$$$
>  <SMILES CODE>
Cc1n[nH]c2ccnc(OC3CCCCC3)c12

>  <TESTED SYSTEM>
Mitogen-activated protein kinase 14 (Homo sapiens)

>  <MEAS VALUE>
0%

$$$$
>  <SMILES CODE>
Cc1n[nH]c2ccnc(Nc3ccccc3F)c12

>  <TESTED SYSTEM>
Mitogen-activated protein kinase 14 (Homo sapiens)

>  <MEAS VALUE>
10%

$$$$

====

TESTED SYSTEM: SRSF protein kinase 1 (Homo sapiens) (UniProt Q96SB4)
Sequence (Q96SB4 whole entry): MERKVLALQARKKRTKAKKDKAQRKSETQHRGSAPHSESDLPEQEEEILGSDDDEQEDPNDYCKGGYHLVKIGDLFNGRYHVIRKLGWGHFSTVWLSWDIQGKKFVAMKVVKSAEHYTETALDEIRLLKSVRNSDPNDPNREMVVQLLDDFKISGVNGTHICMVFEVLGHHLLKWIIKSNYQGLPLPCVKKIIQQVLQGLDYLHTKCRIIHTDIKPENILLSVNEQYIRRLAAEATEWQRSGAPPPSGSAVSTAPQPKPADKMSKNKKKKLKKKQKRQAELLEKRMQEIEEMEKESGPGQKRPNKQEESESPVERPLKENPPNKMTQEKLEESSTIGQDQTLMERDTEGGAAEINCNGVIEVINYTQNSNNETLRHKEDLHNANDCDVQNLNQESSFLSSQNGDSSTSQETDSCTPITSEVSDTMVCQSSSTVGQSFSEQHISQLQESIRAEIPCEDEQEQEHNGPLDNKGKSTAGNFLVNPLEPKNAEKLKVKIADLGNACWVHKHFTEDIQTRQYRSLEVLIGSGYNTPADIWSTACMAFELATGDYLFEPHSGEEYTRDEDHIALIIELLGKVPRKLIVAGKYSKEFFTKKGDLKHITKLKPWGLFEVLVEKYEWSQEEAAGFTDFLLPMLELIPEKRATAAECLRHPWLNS
ASSAY TEXT: Inhibition of SRPK1 (unknown origin) at 10 uM relative to control
Below, each entry is listed alongside its reported inhibition.
PROPERTY MEASURED: inhibition

>  <SMILES CODE>
Cc1n[nH]c2ccnc(Nc3ccccc3F)c12

>  <TESTED SYSTEM>
SRSF protein kinase 1 (Homo sapiens) (UniProt Q96SB4)

>  <MEAS VALUE>
17%

$$$$
>  <SMILES CODE>
Cc1n[nH]c2ccnc(NC3CCCCC3)c12

>  <TESTED SYSTEM>
SRSF protein kinase 1 (Homo sapiens) (UniProt Q96SB4)

>  <MEAS VALUE>
10%

$$$$
>  <SMILES CODE>
Cc1n[nH]c2ccnc(Nc3ccc4ncsc4c3)c12

>  <TESTED SYSTEM>
SRSF protein kinase 1 (Homo sapiens) (UniProt Q96SB4)

>  <MEAS VALUE>
0%

$$$$
>  <SMILES CODE>
Cc1n[nH]c2ccnc(OC3CCCCC3)c12

>  <TESTED SYSTEM>
SRSF protein kinase 1 (Homo sapiens) (UniProt Q96SB4)

>  <MEAS VALUE>
20%

$$$$

====

TESTED SYSTEM: Mitogen-activated protein kinase 8 (Homo sapiens) (UniProt P45983)
Sequence (P45983 whole entry): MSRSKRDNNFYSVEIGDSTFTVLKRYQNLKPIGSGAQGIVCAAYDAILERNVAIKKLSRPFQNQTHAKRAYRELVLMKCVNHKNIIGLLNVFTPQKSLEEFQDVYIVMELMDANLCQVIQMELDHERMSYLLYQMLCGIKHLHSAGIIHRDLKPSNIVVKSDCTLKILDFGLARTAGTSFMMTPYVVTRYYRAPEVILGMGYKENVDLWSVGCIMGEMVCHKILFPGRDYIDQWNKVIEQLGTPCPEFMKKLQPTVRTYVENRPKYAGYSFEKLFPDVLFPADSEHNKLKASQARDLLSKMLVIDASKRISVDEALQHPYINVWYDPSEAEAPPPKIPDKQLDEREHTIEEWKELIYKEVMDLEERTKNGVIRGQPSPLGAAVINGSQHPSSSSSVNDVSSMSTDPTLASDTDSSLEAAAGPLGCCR
ASSAY TEXT: Inhibition of JNK1 (unknown origin) at 10 uM relative to control
Documented inhibition across a set of molecules

>  <SMILES CODE>
Cc1n[nH]c2ccnc(OC3CCCCC3)c12

>  <inhibition, %>
86

$$$$
>  <SMILES CODE>
Cc1n[nH]c2ccnc(Nc3ccc4ncsc4c3)c12

>  <inhibition, %>
56

$$$$
>  <SMILES CODE>
Cc1n[nH]c2ccnc(Nc3ccccc3F)c12

>  <inhibition, %>
55

$$$$
>  <SMILES CODE>
Cc1n[nH]c2ccnc(NC3CCCCC3)c12

>  <inhibition, %>
32

$$$$

====

TESTED SYSTEM: Tyrosine-protein kinase BTK (Homo sapiens) (UniProt Q06187)
ASSAY TEXT: Inhibition of BTK (unknown origin) at 10 uM relative to control
Recorded measurements of inhibition, one per entry
PROPERTY MEASURED: inhibition (%)

>  <SMILES CODE>
Cc1n[nH]c2ccnc(Nc3ccc4ncsc4c3)c12

>  <TESTED SYSTEM>
Tyrosine-protein kinase BTK (Homo sapiens) (UniProt Q06187)

>  <PROPERTY MEASURED>
inhibition

>  <UNIT TAG>
%

>  <MEAS VALUE>
10

$$$$
>  <SMILES CODE>
Cc1n[nH]c2ccnc(Nc3ccccc3F)c12

>  <TESTED SYSTEM>
Tyrosine-protein kinase BTK (Homo sapiens) (UniProt Q06187)

>  <PROPERTY MEASURED>
inhibition

>  <UNIT TAG>
%

>  <MEAS VALUE>
26

$$$$
>  <SMILES CODE>
Cc1n[nH]c2ccnc(NC3CCCCC3)c12

>  <TESTED SYSTEM>
Tyrosine-protein kinase BTK (Homo sapiens) (UniProt Q06187)

>  <PROPERTY MEASURED>
inhibition

>  <UNIT TAG>
%

>  <MEAS VALUE>
70

$$$$
>  <SMILES CODE>
Cc1n[nH]c2ccnc(OC3CCCCC3)c12

>  <TESTED SYSTEM>
Tyrosine-protein kinase BTK (Homo sapiens) (UniProt Q06187)

>  <PROPERTY MEASURED>
inhibition

>  <UNIT TAG>
%

>  <MEAS VALUE>
40

$$$$

====

Each item that follows carries a reported inhibition.
TESTED SYSTEM: Ribosomal protein S6 kinase alpha-3 (Homo sapiens) (UniProt P51812)
Sequence (P51812 whole entry): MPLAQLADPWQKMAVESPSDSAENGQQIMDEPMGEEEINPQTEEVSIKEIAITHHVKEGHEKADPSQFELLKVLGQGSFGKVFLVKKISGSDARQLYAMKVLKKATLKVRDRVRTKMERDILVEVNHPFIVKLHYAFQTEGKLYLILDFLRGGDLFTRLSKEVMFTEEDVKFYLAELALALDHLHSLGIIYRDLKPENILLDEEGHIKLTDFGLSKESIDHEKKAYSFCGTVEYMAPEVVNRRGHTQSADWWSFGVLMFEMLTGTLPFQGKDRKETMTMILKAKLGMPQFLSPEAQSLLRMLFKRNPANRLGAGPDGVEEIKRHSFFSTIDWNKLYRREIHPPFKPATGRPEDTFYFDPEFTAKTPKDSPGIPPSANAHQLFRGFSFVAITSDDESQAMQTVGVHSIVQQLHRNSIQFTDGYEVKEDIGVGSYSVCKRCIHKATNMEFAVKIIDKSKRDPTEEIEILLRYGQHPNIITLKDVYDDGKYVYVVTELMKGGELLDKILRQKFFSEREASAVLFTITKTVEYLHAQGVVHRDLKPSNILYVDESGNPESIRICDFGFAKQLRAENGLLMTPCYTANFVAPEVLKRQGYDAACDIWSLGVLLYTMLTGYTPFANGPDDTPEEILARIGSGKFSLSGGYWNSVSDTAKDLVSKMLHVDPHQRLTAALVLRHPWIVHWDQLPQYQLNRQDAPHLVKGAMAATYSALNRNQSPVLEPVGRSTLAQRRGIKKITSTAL
ASSAY TEXT: Inhibition of RSK2 (unknown origin) at 10 uM relative to control

>  <SMILES CODE>
Cc1n[nH]c2ccnc(NC3CCCCC3)c12

>  <inhibition>
51%

$$$$
>  <SMILES CODE>
Cc1n[nH]c2ccnc(Nc3ccccc3F)c12

>  <inhibition>
38%

$$$$
>  <SMILES CODE>
Cc1n[nH]c2ccnc(OC3CCCCC3)c12

>  <inhibition>
73%

$$$$
>  <SMILES CODE>
Cc1n[nH]c2ccnc(Nc3ccc4ncsc4c3)c12

>  <inhibition>
73%

$$$$

====

TESTED SYSTEM: Serine/threonine-protein kinase BRSK2 (Homo sapiens) (UniProt Q8IWQ3)
Sequence (Q8IWQ3 whole entry): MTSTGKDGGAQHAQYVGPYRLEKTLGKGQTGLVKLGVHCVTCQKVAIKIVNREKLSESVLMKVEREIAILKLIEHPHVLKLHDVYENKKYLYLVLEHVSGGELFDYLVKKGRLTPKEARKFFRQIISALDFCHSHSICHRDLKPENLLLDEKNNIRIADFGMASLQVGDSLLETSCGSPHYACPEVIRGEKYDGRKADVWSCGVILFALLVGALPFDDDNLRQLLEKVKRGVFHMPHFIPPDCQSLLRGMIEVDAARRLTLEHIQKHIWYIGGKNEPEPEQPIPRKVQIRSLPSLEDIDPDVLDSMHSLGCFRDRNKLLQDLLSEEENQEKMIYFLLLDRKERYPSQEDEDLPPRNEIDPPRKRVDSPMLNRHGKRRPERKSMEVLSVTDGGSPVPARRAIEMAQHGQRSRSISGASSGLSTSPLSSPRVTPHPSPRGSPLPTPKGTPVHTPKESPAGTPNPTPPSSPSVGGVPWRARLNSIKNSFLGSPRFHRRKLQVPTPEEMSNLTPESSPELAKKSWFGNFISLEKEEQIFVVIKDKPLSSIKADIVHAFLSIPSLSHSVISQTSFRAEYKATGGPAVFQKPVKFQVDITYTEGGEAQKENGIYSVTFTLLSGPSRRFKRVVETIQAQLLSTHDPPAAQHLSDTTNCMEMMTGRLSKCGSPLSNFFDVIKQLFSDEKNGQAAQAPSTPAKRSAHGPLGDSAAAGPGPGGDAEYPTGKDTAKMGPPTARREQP
ASSAY TEXT: Inhibition of BRSK2 (unknown origin) at 10 uM relative to control

>  <SMILES CODE>
Cc1n[nH]c2ccnc(OC3CCCCC3)c12

>  <UNIT TAG>
%

>  <inhibition>
67

$$$$
>  <SMILES CODE>
Cc1n[nH]c2ccnc(NC3CCCCC3)c12

>  <UNIT TAG>
%

>  <inhibition>
46

$$$$
>  <SMILES CODE>
Cc1n[nH]c2ccnc(Nc3ccc4ncsc4c3)c12

>  <UNIT TAG>
%

>  <inhibition>
35

$$$$
>  <SMILES CODE>
Cc1n[nH]c2ccnc(Nc3ccccc3F)c12

>  <UNIT TAG>
%

>  <inhibition>
68

$$$$

====

Quick reference for inhibition among some compounds
TESTED SYSTEM: Serine/threonine-protein kinase 3 (Homo sapiens)
ASSAY TEXT: Inhibition of MST2 (unknown origin) at 10 uM relative to control

>  <SMILES CODE>
Cc1n[nH]c2ccnc(NC3CCCCC3)c12

>  <TESTED SYSTEM>
Serine/threonine-protein kinase 3 (Homo sapiens)

>  <inhibition, %>
80

$$$$
>  <SMILES CODE>
Cc1n[nH]c2ccnc(OC3CCCCC3)c12

>  <TESTED SYSTEM>
Serine/threonine-protein kinase 3 (Homo sapiens)

>  <inhibition, %>
79

$$$$
>  <SMILES CODE>
Cc1n[nH]c2ccnc(Nc3ccccc3F)c12

>  <TESTED SYSTEM>
Serine/threonine-protein kinase 3 (Homo sapiens)

>  <inhibition, %>
66

$$$$
>  <SMILES CODE>
Cc1n[nH]c2ccnc(Nc3ccc4ncsc4c3)c12

>  <TESTED SYSTEM>
Serine/threonine-protein kinase 3 (Homo sapiens)

>  <inhibition, %>
72

$$$$
